B1: TNXB (parent)
chain: FSEIRETSAKVNWMPPPSRADSFK

Variants of: B1
Experiment: protein stability index of a GFP-peptide fusion (GPS, HEK-293T) (PSI 1-6); higher = more stable;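 note: lentivirally expressed fusions sorted by FACS into six bins by GFP to DsRed ratio, PSI derived from sequencing read proportions per bin multiplied by bin number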
Conditions: c terminus: a fixed tail appended
Endpoint: protein stability index
The reply should be a number, written without any unit.

Consider the reported protein stability index for these variants:
V11T :: 3.72
N12G :: 3.35
S18Q :: 3.64

Alright, here's another variant for you.
Return protein stability index (reported value) for this variant: T7L 2.69
